- assayTarget: T1, CD96 extracellular region with His tag (CD96-His) (human, UniProt P40200 22-519)
- T1 construct: also called CD96-ECD-His; Bio-CD96-His (biotin-labelled form)
- T1 sequence: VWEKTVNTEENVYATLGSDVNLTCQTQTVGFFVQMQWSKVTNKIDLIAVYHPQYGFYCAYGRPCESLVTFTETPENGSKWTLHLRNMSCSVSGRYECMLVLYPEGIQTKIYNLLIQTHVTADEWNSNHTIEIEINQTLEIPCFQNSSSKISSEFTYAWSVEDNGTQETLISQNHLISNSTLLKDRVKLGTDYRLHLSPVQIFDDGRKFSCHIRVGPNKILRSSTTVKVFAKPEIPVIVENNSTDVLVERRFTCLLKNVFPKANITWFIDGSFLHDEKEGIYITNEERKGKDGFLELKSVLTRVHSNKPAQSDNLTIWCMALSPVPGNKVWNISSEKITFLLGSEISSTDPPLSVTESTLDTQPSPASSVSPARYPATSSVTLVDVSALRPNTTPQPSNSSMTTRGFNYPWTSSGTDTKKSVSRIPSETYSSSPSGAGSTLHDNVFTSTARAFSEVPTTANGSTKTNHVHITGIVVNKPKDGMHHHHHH
- assayRemarks: ELISA, CD96-His coated
Entries and their EC50
The answer is to be given in pM; state only the numeric part.

Quick one: give measured EC50 for ch1721 (antibody, human IgG4 S228P, kappa, V domains shown, also called chimeric antibody corresponding to m1721) VH: QVQLKESGPGLVAPSQSLSITCTVSGFSLISYGVNWVRQPPGKGLEWLGVIWGDGSTNYHSALISRLSISKDDSKSQVFLNLNSLQTDDTATYYCAKNYFYGSRYGYAMDSWGQGISVTVSS VL: DIQMTQSPASLSAAVGETVTITCRASENIYSSLAWYQQKQGKSPQLLVYNAKTLIETVASRFSGSGSGTQYSLKINSLQPEDFGSFYCQHHYGTPYTFGGGTKLEIKR 75

Quick one: give measured EC50 for h1722-017 (antibody, V domains shown) VH: EVQLVQSGAEVKKPGSSVKVSCKASGGTFSDYWMHWVRQAPGQGLEWIGMLHPKSGTTSFNEKFKIRVTITADKSTSTAYMELSSLRSEDTAVYYCASDYSGPFAYWGQGTLVTVSS VL: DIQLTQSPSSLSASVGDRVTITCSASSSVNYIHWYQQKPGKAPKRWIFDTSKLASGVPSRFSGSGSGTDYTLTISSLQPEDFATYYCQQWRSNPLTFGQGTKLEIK 113

Quick one: give measured EC50 for h1722-006 (antibody, V domains shown, Only variable regions are tied to this name) VH: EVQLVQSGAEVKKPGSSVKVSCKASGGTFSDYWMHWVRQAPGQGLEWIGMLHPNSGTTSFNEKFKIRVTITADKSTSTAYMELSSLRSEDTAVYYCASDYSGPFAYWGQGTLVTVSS VL: DIQMTQSPSSLSASVGDRVTITCSASSSVNYIHWYQQKPGKAPKRWIYDTSKLASGVPSRFSGSGSGTDFTLTISSLQPEDFATYYCQQWRSNPLTFGQGTKLEIK 77

Quick one: give measured EC50 for h1722-005 (antibody, V domains shown, Only variable regions are tied to this name) VH: EVQLVQSGAEVKKPGSSVKVSCKASGGTFSDYWMHWVRQAPGQGLEWMGMLHPNSGTTSFNEKFKIRVTITADKSTSTAYMELSSLRSEDTAVYYCARDYSGPFAYWGQGTLVTVSS VL: DIQMTQSPSSLSASVGDRVTITCSASSSVNYIHWYQQKPGKAPKRWIYDTSKLASGVPSRFSGSGSGTDFTLTISSLQPEDFATYYCQQWRSNPLTFGQGTKLEIK 72

Quick one: give measured EC50 for h1721-003 (antibody, V domains shown, Only variable regions are tied to this name; also called M721-003) VH: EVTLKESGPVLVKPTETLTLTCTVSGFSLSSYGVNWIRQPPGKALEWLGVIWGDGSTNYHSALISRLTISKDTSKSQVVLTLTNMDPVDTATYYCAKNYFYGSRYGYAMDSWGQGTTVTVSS VL: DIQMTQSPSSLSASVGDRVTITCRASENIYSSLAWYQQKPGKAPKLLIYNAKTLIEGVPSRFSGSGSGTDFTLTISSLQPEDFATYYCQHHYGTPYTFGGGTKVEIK 70

Next:
Quick one: give measured EC50 for ch1719 (antibody, human IgG4 S228P, kappa, V domains shown, also called chimeric antibody corresponding to m1719) VH: QVQLKESGPGLVAPSQSLSITCTVSGFSLISYGVSWVRQPPGKGLEWLGVIWGDGNTNYHSVLISRLSIRKDDSKSQVFLKLNSLQTDDTATYYCAKNNYYGSRYGYPMDYWGQGTSVTVSS VL: DIVMTQSHKFMSTSVGDRVSITCKATQDVGTAVAWYQQKPGHSPKLLIYWASTRHTGVPERFTGSGSGTDFTLTIDNVQSEDLADYFCQQYGSSVLTFGAGTKVELRR 65

Quick one: give measured EC50 for h1722-018 (antibody, V domains shown) VH: EVQLVQSGAEVKKPGSSVKVSCKASGGTFSDYWMHWVRQAPGQGLEWIGMLHPQSGTTSFNEKFKIRVTITADKSTSTAYMELSSLRSEDTAVYYCASDYSGPFAYWGQGTLVTVSS VL: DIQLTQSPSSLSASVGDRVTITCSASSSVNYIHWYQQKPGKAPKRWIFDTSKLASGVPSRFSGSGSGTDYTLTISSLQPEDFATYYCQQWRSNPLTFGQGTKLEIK 91

Quick one: give measured EC50 for h1718-012 (antibody, V domains shown, Only variable regions are tied to this name) VH: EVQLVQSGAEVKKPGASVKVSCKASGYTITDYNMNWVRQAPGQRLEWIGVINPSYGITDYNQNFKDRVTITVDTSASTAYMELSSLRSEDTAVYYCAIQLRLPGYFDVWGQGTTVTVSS VL: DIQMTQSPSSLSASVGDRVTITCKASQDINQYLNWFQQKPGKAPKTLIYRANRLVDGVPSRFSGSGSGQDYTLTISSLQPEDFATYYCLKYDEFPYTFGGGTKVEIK 95

Quick one: give measured EC50 for ch1722 (antibody, human IgG4 S228P, kappa, V domains shown, also called chi722; chimeric antibody corresponding to m1722) VH: QVQLQQPGAELVKPGTSVKLSCKASGNTFIDYWMHWVKQRPGQGLEWIGMLHPNSGTTSFNEKFKIKTTLTIDKSSSTAYMQLSSLTSEDSAIYYCASDYSGPFAYWGQGTLVTVSA VL: QIVLTQSPGIMSAFPGEKVTMTCSASSSVNYIHWYQQKSGTSPKRWIFDTSKLASGVPARFSGSGSGTSYSLTISSMEAEDAATYYCQQWRSNPLTFGAGTKLELKR 94

Quick one: give measured EC50 for h1722-010 (antibody, V domains shown, Only variable regions are tied to this name; also called M722-010) VH: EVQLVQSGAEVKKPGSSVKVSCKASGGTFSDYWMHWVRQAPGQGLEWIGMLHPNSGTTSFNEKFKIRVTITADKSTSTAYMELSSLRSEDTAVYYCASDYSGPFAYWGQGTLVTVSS VL: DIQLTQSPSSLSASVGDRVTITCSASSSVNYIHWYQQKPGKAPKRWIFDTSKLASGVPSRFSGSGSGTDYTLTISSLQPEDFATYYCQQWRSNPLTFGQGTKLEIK 73
